test.target: Fes (UniProt P07332)
Sequence (P07332 whole entry, looked up): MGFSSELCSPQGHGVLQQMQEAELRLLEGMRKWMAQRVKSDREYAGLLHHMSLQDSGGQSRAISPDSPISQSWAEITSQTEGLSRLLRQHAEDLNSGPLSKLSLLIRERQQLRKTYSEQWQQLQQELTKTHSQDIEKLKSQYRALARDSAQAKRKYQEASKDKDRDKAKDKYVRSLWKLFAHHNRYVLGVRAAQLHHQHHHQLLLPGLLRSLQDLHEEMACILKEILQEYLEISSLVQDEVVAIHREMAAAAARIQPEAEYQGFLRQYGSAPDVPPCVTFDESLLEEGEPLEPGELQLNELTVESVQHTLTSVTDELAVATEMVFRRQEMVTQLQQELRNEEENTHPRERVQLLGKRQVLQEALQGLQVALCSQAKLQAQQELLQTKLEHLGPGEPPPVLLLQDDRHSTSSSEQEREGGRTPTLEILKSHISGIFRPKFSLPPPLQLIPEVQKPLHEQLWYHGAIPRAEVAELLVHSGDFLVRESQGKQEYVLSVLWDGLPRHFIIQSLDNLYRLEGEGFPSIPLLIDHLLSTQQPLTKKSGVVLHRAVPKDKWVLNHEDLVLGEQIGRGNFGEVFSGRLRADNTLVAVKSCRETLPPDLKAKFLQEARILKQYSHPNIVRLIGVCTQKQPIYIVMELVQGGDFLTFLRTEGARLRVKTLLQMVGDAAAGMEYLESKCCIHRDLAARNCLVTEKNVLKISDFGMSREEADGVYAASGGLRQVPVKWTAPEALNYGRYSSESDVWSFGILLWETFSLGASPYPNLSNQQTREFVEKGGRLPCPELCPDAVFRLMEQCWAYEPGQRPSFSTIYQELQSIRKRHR
assay.info: phosphorylation enrichment, bacterial display (enrichment ratio); higher = better substrate or ligand; peptides without Tyr show the background
Please provide measured phosphorylation enrichment for the entries that follow.
Give bare numbers.

Answered cases to consult:
MEFAKYGSLRG [RET_Y809_V804M_YF] | 0.628
KPLMPCMRYSR [SMARCE1_Y73_Y73C] | 0.791
FKGIVYSVSSD [DCX_Y70_A71S] | 1.11
PSAEGYQDVRD [ABLIM1_Y439] | 1.08
ASKEPYFVRCI [MYO1D_Y585_YF] | 1.77

For every record below, what is its phosphorylation enrichment?
1. VICRRYLVMQR [IL3RA_Y328]
2. TFEFRYLEDRD [CNOT3_Y746_YF]
3. GAEIVYKSPVV [MAPT_Y711]
4. HDRGNYVQLNM [RECQL4_Y353_R355Q]
5. VFGVSYDEFRF [CFTR_Y512_I507V_YF]

OUT:
1: 1.05; 2: 1.37; 3: 0.904; 4: 1.1; 5: 1.13

----------
test.target: Jak2 (UniProt O60674)
Sequence (O60674 whole entry, looked up): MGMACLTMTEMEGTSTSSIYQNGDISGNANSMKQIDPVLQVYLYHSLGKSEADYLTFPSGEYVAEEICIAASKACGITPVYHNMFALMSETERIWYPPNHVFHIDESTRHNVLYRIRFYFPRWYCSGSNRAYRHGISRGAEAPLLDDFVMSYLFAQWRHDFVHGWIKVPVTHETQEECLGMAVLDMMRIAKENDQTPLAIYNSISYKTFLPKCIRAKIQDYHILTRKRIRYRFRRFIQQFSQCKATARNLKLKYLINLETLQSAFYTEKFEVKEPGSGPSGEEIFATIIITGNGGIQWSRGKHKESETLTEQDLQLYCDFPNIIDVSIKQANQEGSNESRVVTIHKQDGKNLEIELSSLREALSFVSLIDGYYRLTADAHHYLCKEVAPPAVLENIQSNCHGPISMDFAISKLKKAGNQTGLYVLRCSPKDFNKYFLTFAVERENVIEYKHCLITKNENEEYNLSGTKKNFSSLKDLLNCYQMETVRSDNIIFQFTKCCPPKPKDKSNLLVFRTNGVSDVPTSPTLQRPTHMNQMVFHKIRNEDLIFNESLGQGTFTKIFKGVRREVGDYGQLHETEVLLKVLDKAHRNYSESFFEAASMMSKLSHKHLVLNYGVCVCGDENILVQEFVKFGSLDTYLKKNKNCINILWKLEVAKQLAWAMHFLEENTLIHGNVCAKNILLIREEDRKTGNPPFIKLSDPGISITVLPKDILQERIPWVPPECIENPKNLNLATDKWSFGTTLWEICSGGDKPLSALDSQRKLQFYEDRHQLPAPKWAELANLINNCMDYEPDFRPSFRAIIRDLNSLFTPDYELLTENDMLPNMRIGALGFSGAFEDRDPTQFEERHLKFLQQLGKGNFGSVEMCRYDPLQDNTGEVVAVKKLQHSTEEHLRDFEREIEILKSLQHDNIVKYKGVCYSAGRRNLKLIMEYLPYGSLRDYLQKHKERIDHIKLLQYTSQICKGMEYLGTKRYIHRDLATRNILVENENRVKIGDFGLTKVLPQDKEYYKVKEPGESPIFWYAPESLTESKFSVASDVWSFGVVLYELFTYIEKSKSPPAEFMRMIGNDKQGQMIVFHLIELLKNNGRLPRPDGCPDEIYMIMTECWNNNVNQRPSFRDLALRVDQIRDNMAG
assay.info: phosphorylation enrichment, bacterial display (enrichment ratio); higher = better substrate or ligand; peptides without Tyr show the background
readout.type: phosphorylation enrichment
One number for each entry.

NAMRRHIEEFQ [MNS1_Y244_Y244H] | 0.672
FFRKFCNKSED [RYR1_Y4864_Y4864C] | 0.779
SSENPCATIKD [MEGF10_Y1030_Y1030C] | 0.66

// each sequence listed below needs its phosphorylation enrichment
1. FQNGMYGLHQD [SGSH_Y89_H84Y_YF]
2. QKTGDYFDLFG [PTPN11_Y62_N58K_YF]

OUT:
1: 0.733; 2: 7.57

State recorded phosphorylation enrichment for all listed sequences.
1. MRALIYNSSTV [PLEKHA7_Y243_A248V]
2. IVFVICDEVVK [SLC25A1_Y297_Y297C]

OUT:
0.726
1.01

----------
test.target: EPHB1 (UniProt P54762)
Sequence (P54762 whole entry, looked up): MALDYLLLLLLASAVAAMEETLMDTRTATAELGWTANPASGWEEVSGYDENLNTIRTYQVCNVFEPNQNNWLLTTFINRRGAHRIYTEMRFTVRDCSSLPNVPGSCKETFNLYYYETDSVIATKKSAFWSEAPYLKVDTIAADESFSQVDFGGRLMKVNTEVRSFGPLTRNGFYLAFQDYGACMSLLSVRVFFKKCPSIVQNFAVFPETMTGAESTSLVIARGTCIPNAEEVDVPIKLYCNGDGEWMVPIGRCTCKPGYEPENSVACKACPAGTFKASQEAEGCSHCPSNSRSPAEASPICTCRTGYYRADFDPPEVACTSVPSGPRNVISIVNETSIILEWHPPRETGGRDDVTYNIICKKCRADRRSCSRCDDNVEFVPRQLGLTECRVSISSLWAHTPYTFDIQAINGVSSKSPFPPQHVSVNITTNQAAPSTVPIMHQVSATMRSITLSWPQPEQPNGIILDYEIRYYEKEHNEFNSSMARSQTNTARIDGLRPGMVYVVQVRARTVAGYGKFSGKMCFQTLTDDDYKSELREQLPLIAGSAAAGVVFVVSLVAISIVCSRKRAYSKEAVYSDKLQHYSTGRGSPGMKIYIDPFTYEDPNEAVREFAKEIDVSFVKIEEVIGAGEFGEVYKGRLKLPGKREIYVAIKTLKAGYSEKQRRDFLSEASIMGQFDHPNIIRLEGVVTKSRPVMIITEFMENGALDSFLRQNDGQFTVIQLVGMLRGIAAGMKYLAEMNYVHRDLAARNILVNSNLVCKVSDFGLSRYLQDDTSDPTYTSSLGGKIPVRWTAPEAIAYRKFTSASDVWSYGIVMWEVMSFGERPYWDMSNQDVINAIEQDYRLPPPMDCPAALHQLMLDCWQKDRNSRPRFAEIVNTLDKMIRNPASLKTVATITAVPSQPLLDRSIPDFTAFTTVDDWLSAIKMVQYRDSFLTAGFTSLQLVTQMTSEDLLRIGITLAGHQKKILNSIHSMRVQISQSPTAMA
assay.info: phosphorylation enrichment, bacterial display (enrichment ratio); higher = better substrate or ligand; peptides without Tyr show the background
Response key: yes means phosphorylation enrichment >= 0.7; no means phosphorylation enrichment < 0.7.

GRLPEYNTPIA [CCDC151_Y542_R545P] | no
IKELTYQTEED [MYH7_Y1852] | no
RSFSPYDFQPC [TNS1_Y796_YF] | no

IN: Does the sequence PTTKTYFPHFD [HBA1_Y43] have recorded phosphorylation enrichment that is 0.7 or more?
OUT: no

IN: Check if phosphorylation enrichment >= 0.7 (inclusive). Item: VHLYAYDWISI [BEST1_Y227_G222V]
OUT: yes

IN: Does phosphorylation enrichment meet or surpass 0.7 for QKTGDYFDLFG [PTPN11_Y62_N58K_YF] ?
OUT: yes

IN: Given TVMGLYQKSSL [MYH7_Y609_V606M] , state whether its phosphorylation enrichment is at least 0.7.
OUT: no

----------
Kindly state SH2 binding enrichment for each of the entries shown.
test.target: Grb2 SH2 (UniProt P62993)
Sequence (P62993 whole entry, looked up): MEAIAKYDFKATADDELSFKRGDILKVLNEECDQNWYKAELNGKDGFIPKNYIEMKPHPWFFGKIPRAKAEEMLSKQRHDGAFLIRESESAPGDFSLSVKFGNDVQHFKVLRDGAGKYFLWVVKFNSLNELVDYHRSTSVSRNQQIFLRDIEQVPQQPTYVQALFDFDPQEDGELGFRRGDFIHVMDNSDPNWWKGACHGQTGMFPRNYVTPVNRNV
assay.info: SH2 binding enrichment of the phosphorylated peptide, bacterial display (enrichment ratio); higher = better substrate or ligand; peptides without Tyr show the background
Give bare numbers.

Example entries begin here.
QPAGNYSLSSV [ARFGAP3_Y473] | 0.812
REQREYLEQLN [CCDC88B_Y1277_D1279E] | 0.679
PLRADYLIARV [HLCS_Y635] | 0.896
WDLPEYSYKDP [ITGA3_Y237_S235P] | 0.89
PAIERYVVVCK [RHO_Y136_L131P] | 0.857
TLNVRYESVQA [CEACAM7_Y236] | 0.9

Now turn to the next sequence.
IN: State its SH2 binding enrichment on Grb2 SH2 (UniProt P62993): QDRTFYESVRT [SPEN_Y633_YF]
OUT: 0.816
